target: Kappa-type opioid receptor (Mus musculus, UniProt P33534)
pKi: −log10 of the molar value.
Classification field: true (1) = pKi at or over 8; false (0) = pKi under 8.

# bool: pKi of O=Cc1c[nH]c2c(C(=O)N[C@@H]3CC[C@@]4(O)[C@H]5Cc6ccc(O)c7c6[C@@]4(CCN5CC4CC4)[C@H]3O7)cccc12 >= 8
true (1)

Confirm if pKi reported for the molecule O=C(N[C@@H]1CC[C@@]2(O)[C@H]3Cc4ccc(O)c5c4[C@@]2(CCN3CC2CC2)[C@H]1O5)c1cccc2c(C3CCCCC3)c[nH]c12 is 8 or above.
false (0)

Does the reported pKi for O=Cc1c[nH]c2c(C(=O)N[C@H]3CC[C@@]4(O)[C@H]5Cc6ccc(O)c7c6[C@@]4(CCN5CC4CC4)[C@H]3O7)cccc12 fall at or above the 8 mark?
true (1)

Reported pKi at or above 8? Cc1c[nH]c2c(C(=O)N[C@H]3CC[C@@]4(O)[C@H]5Cc6ccc(O)c7c6[C@@]4(CCN5CC4CC4)[C@H]3O7)cccc12
true (1)

Tell me whether pKi is at least 8 here: O=C(N[C@H]1CC[C@@]2(O)[C@H]3Cc4ccc(O)c5c4[C@@]2(CCN3CC2CC2)[C@H]1O5)c1cccc2cc(Br)[nH]c12
true (1)

In plain terms: is recorded pKi at least 8 for O=C(N[C@H]1CC[C@@]2(O)[C@H]3Cc4ccc(O)c5c4[C@@]2(CCN3CC2CC2)[C@H]1O5)c1cccc2c(C3CCCC3)c[nH]c12 ?
false (0)

// inclusive: pKi at least 8? input: CC(C)c1c[nH]c2c(C(=O)N[C@@H]3CC[C@@]4(O)[C@H]5Cc6ccc(O)c7c6[C@@]4(CCN5CC4CC4)[C@H]3O7)cccc12
true (1)

Decide: is the reported value of pKi for Cc1cc2cccc(C(=O)N[C@@H]3CC[C@@]4(O)[C@H]5Cc6ccc(O)c7c6[C@@]4(CCN5CC4CC4)[C@H]3O7)c2[nH]1 equal to or greater than 8?
true (1)

Is pKi for N#Cc1c[nH]c2c(C(=O)N[C@H]3CC[C@@]4(O)[C@H]5Cc6ccc(O)c7c6[C@@]4(CCN5CC4CC4)[C@H]3O7)cccc12 at or above 8?
true (1)

Can O=C(N[C@@H]1CC[C@@]2(O)[C@H]3Cc4ccc(O)c5c4[C@@]2(CCN3CC2CC2)[C@H]1O5)c1cccc2c([N+](=O)[O-])c[nH]c12 be said to have pKi at or above 8?
true (1)

Decide: is the reported value of pKi for O=C(N[C@@H]1CC[C@@]2(O)[C@H]3Cc4ccc(O)c5c4[C@@]2(CCN3CC2CC2)[C@H]1O5)c1cccc2cc(Cl)[nH]c12 equal to or greater than 8?
true (1)

Confirm if pKi reported for the molecule O=C(N[C@@H]1CC[C@@]2(O)[C@H]3Cc4ccc(O)c5c4[C@@]2(CCN3CC2CC2)[C@H]1O5)c1cccc2cc(-c3ccccc3)[nH]c12 is 8 or above.
true (1)

----------
target: Mu-type opioid receptor (Mus musculus)
Give pKi for every item shown.
Interpret pKi as the negative base-10 log of the concentration measured in mol/L.

Quick one: pKi for O=C(N[C@@H]1CC[C@@]2(O)[C@H]3Cc4ccc(O)c5c4[C@@]2(CCN3CC2CC2)[C@H]1O5)c1cccc2cc(Br)[nH]c12 ?
9.46

Given the entry O=C(N[C@@H]1CC[C@@]2(O)[C@H]3Cc4ccc(O)c5c4[C@@]2(CCN3CC2CC2)[C@H]1O5)c1cccc2c(-c3ccccc3)c[nH]c12 , report its measured pKi.
8.84

Name the reported pKi value associated with the compound Cc1c[nH]c2c(C(=O)N[C@H]3CC[C@@]4(O)[C@H]5Cc6ccc(O)c7c6[C@@]4(CCN5CC4CC4)[C@H]3O7)cccc12
9.16

Which pKi reading was recorded for the compound O=C(N[C@@H]1CC[C@@]2(O)[C@H]3Cc4ccc(O)c5c4[C@@]2(CCN3CC2CC2)[C@H]1O5)c1cccc2c(Cl)c[nH]c12 ?
9.21

What value of pKi has been reported for the following compound? Cc1cc2cccc(C(=O)N[C@@H]3CC[C@@]4(O)[C@H]5Cc6ccc(O)c7c6[C@@]4(CCN5CC4CC4)[C@H]3O7)c2[nH]1
9.51

Given the compound CC(=O)c1c[nH]c2c(C(=O)N[C@H]3CC[C@@]4(O)[C@H]5Cc6ccc(O)c7c6[C@@]4(CCN5CC4CC4)[C@H]3O7)cccc12 , what is its reported pKi?
9.37

This collection of values is drawn from ChEMBL document CHEMBL5316274.
